test: qHTS assay to identify small molecule antagonists of the androgen receptor (AR) signaling pathway using the MDA cell line in the presence of 0.5 nM R1881 - cell viability counter screen (AID 1259242); conditions: MDA-kb2 viability, CellTiter-Fluor protease fluorescence, 16 h; series mostly up to 92.4 µM; note: nearly all actives have a fitted effect of over 45% in size
Results filed as inconclusive are left out. Active and inactive are the calls of the source. Calls come from the whole dose curve; as a rule, active = well fitted cell-killing curve with a large enough effect in the repeat runs; inconclusive = weak or mixed curves, or effect the other way; inactive = flat fitted curve, though single readings scatter.
Choose one outcome from this list and give only that: 1 (active), 0 (inactive)

# example entries with known answers
compound: O=C1c2ccccc2C(=O)N1SC1CCCCC1
class: 0

compound: CCO[C@@H]1O[C@H](C(COCc2ccccc2)OCc2ccccc2)[C@H](OCc2ccccc2)[C@H]1O (stereo partly specified)
class: 0

compound: O=C1NC(=O)[C@@H]2CC=CC[C@H]12
class: 0

Lookup: How did this test come out for C=CC(=O)Nc1cc2c(Nc3ccc(F)c(Cl)c3)ncnc2cc1OCCCN1CCOCC1 ?
Found: 1

Lookup: How did this test come out for CCCCCCOC(=O)C(C)CC (stereo unspecified) ?
Found: 0

Lookup: How did this test come out for O=C1CCc2cc(OCCCCc3nnnn3C3CCCCC3)ccc2N1 ?
Found: 0

Lookup: How did this test come out for CC(C)CCOC(=O)/C=C/c1ccccc1 ?
Found: 0

Lookup: How did this test come out for COc1cccc(OC)c1C(=O)O ?
Found: 0

Lookup: How did this test come out for Cc1cc(-n2nc3ccc(Cl)cc3n2)c(O)c(C(C)(C)C)c1 ?
Found: 0

Lookup: How did this test come out for CC1=CCC(=C(C)C)CC1 ?
Found: 0

Lookup: How did this test come out for Cc1c(F)c(N2CCNC(C)C2)cc2c1c(=O)c(C(=O)O)cn2C1CC1 (stereo unspecified) ?
Found: 0

Lookup: How did this test come out for Clc1ccnc(Cl)n1 ?
Found: 0

Lookup: How did this test come out for CCOc1ccc2ccccc2c1C(=O)N[C@@H]1C(=O)N2[C@@H]1SC(C)(C)[C@@H]2C(=O)O ?
Found: 0

Lookup: How did this test come out for CN(C)Cc1cc(C(C)(C)C)c(O)c(C(C)(C)C)c1 ?
Found: 0

Lookup: How did this test come out for O=C(/C=C/c1ccc(O)c(O)c1)O[C@@H](C(=O)O)[C@@H](OC(=O)/C=C/c1ccc(O)c(O)c1)C(=O)O ?
Found: 0

Lookup: How did this test come out for O=C(Oc1ccccc1)Oc1ccccc1 ?
Found: 0

Lookup: How did this test come out for C=CC(=O)OCCOC(=O)C=C ?
Found: 0

Lookup: How did this test come out for O=C(O)c1cc(-c2ccc(F)cc2F)ccc1O ?
Found: 0

Lookup: How did this test come out for COC(=O)c1ccccc1OC ?
Found: 0

Lookup: How did this test come out for O=C1OC2(c3ccc(O)cc3Oc3cc(O)ccc32)c2ccc(N=C=S)cc21 ?
Found: 0
